test system: human rhinovirus (HRV) serotypes; test: microbe, parasite or virus in culture; type: cell-based; settings: read-out: Rhinovirus MIC50
Attribute: MIC50
Field format: number, assumed µg/mL, no unit text.

Known results for compounds:
Cc1cc(CCCCCOc2ccc(C3=NCCO3)cc2C(=O)O)on1 | 99
Cc1cc(CCCCCCc2c(Cl)cc(C3=NCCO3)cc2Cl)on1 | 0.49
Cc1cc(CCCCCCCOc2ccc(C3=NCCO3)cc2Cl)on1 | 0.34
Cc1cc(CCCCCOc2c(Cl)cc(C3=NCCO3)cc2Cl)on1 | 0.07
Cc1cc(CCCCCCCOc2ccc(C3=NCCO3)cc2Br)on1 | 0.16
Cc1cc(CCCCCOc2c(Cl)cc(C(=O)NCCCl)cc2[N+](=O)[O-])on1 | 0.08
C=CCc1cc(C2=NCCO2)ccc1OCCCCCc1cc(C)no1 | 0.39
Cc1cc(CCCCCCOc2ccc(C3=NC(C)CO3)cc2Cl)on1 (stereo not shown) | 0.13

Item: `Cc1cc(CCCCCCCOc2ccc(C3=NC(C)(C)CO3)cc2)on1` Test system: human rhinovirus (HRV) serotypes Read-out: MIC50 Value: ?
1.3

Item: `CCN(CC)Cc1cc(CCCCCCCOc2ccc(C3=NCCO3)cc2)on1` Test system: human rhinovirus (HRV) serotypes Read-out: MIC50 Value: ?
3.25

====

Attribute: MIC50
test system: human rhinovirus (HRV) serotypes; test: microbe, parasite or virus in culture; assay type: cell-based; details: read-out: Rhinovirus MIC50
Field format: number, assumed µg/mL, no unit text.

Known results for compounds:
C=Cc1cc(C2=NCCO2)ccc1OCCCCCc1cc(C)no1 | 0.25
Cc1cc(CCCCOc2ccc(C3=NC(C)(C)CO3)cc2Cl)on1 | 0.78
Cc1cc(CCCCCOc2ccc(C3=NCCO3)cc2C(F)(F)F)on1 | 0.08

Reported MIC50 for `Cc1cc(CCCCCCCOc2c(Cl)cc(C3=NCCO3)cc2Cl)on1` : what is it?
0.22

Reported MIC50 for `Cc1cc(CCCCCOc2c(Cl)cc(C(=O)NCCCl)cc2Br)on1` : what is it?
0.14

Reported MIC50 for Cc1cc(CCCCCCCOc2ccc(C3=NC(CCl)CO3)cc2)on1 (stereo not shown) : what is it?
0.49

Reported MIC50 for `Cc1cc(CCCCCCOc2c(Cl)cc(C3=NCCO3)cc2Cl)on1` : what is it?
0.18

Reported MIC50 for `Cc1cc(CCCCCOc2c(Cl)cc(C(=O)NCCCCl)cc2Cl)on1` : what is it?
0.795

Reported MIC50 for `Cc1cc(CCCCCOc2ccc(C3=NCCO3)cc2Cl)on1` : what is it?
0.08

Reported MIC50 for `COc1cc(C2=NCCO2)ccc1OCCCCCCCc1cc(C)no1` : what is it?
0.55

====

Attribute: MIC
tested on: Polio 2; test: microbe, parasite or virus in culture; type: cell-based, poliovirus; conditions: Enterovirus C, HeLa, read-out: Polio 2 MIC

Known results for compounds:
Cc1cc(CCCCCOc2ccc(C3=NC(C)CO3)cc2Cl)on1 (centres unmarked) [Example 32] | 1.3 µg/mL
Cc1cc(CCCCCCCOc2ccc(C3=NC(C)CO3)cc2)on1 (racemic) [Example 3] | 1.2 µg/mL
Cc1cc(CCCCC[S+]([O-])c2ccc(C3=NCCO3)cc2)on1 (centres unmarked) [Example 104] | 12.5 µg/mL
Cc1cc(CCCCOc2ccc(C3=NC(C)CO3)cc2)on1 (centres unmarked) [Example 64] | 2.4 µg/mL

Item: Cc1cc(CC/C=C/COc2c(Cl)cc(C3=NCCO3)cc2Cl)on1 [Example 113] Test system: Polio 2 Read-out: MIC Value: ?
0.4 µg/mL
